Measured values drawn from patent US20240025918A1 for this set.

Examples of molecules with documented IC50 follow.
Molecular target: GppNp-loaded HIS-KRAS(G12D, aa 1-169) and cRAF RBD (Homo sapiens, UniProt P01116, G12D)
Construct: GppNp-loaded HIS-KRAS(G12D, aa 1-169)
Sequence (P01116 1-169 isoform P01116-2 G12D): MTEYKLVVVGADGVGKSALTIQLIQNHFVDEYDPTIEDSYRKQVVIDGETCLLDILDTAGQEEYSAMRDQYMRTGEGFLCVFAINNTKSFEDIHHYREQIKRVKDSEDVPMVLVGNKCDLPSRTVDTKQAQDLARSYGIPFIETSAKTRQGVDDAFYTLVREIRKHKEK
Experiment: GTP-KRAS and cRAF interaction assay (HTRF)
Settings: 2 hours at 25° C.
Report as a plain number; the unit nM is understood.

Below, 4 molecules whose answers are already recorded.
Lab note: measured IC50 of C#Cc1cccc2cc(O)cc(-c3c(F)cc4c(N5CC6CCC(C5)N6)nc(OCC5(CN6CC7(COC7)C6)CC5)nc4c3F)c12 [Compound 19] was 66.9

Lab note: measured IC50 of C#Cc1c(F)ccc2cc(O)cc(-c3c(SC(F)(F)F)cc4c(N5CC6CCC(C5)N6)nc(OCC5(CN6C[C@@H]7C[C@H]6CO7)CC5)nc4c3F)c12 [Compound 42] was 4.04

Lab note: measured IC50 of C#Cc1cccc2cc(O)cc(-c3c(F)cc4c(N5CC6CCC(C5)N6)nc(OCC5(CN6Cc7ccccc7C6)CC5)nc4c3F)c12 [Compound 58] was 188

Lab note: measured IC50 of C#Cc1cccc2cc(O)cc(-c3c(F)cc4c(N5CC6CCC(C5)N6)nc(OCC5(CN6CCC7(CC6)CC7)CC5)nc4c3F)c12 [Compound 28] was 52.5

Continuing:
Lab note: measured IC50 of C#Cc1cccc2cc(O)cc(-c3c(F)cc4c(N5CC6CCC(C5)N6)nc(OCC5(CN6CCCC7(C6)CC7(F)F)CC5)nc4c3F)c12 (stereo not drawn) [Compound 5] was 310

###

Biological target: GDP-loaded HIS-KRAS(G12D, aa 1-169) (Homo sapiens, UniProt P01116, G12D)
Construct: GDP-loaded HIS-KRAS(G12D, aa 1-169)
Sequence (P01116 1-169 isoform P01116-2 G12D): as above
Test: SOS1 catalyzed nucleotide exchange assay (TR-FRET)
Conditions: 4 hours at 25° C.
Examples of molecules with documented IC50 follow.
Report as a plain number; the unit nM is understood.

Lab note: measured IC50 of `C#Cc1cccc2cc(O)cc(-c3c(F)cc4c(N5CC6CCC(C5)N6)nc(OCC5(CN6CC7(CCOC7)C6)CC5)nc4c3F)c12` was 5.92

Lab note: measured IC50 of `C#Cc1cccc2cc(O)cc(-c3c(F)cc4c(N5CC6CCC(C5)N6)nc(OCC5(CN6CCCOCC6)CC5)nc4c3F)c12` was 4.36

Lab note: measured IC50 of `C#Cc1cccc2cc(O)cc(-c3c(F)cc4c(N5CC6CCC(C5)N6)nc(OCC5(CN6C[C@@H]7OCCO[C@@H]7C6)CC5)nc4c3F)c12` was 1.39

Lab note: measured IC50 of C#Cc1cccc2cc(O)cc(-c3c(F)cc4c(N5CC6CCC(C5)N6)nc(OCC5(CN6CC7COCC7C6)CC5)nc4c3F)c12 (centres unmarked) was 1.26

Lab note: measured IC50 of C#Cc1cccc2cc(O)cc(-c3c(F)cc4c(N5CC6CCC(C5)N6)nc(OCC5(CN6CC7CC6CO7)CC5)nc4c3F)c12 (centres unmarked) [Compound 13] was 12

Lab note: measured IC50 of `C#Cc1cccc2cc(O)cc(-c3c(F)cc4c(N5CC6CCC(C5)N6)nc(OCC5(CN6CC7(COC7)C6)CC5)nc4c3F)c12` was 2.27

Lab note: measured IC50 of `C#Cc1cccc2cc(O)cc(-c3c(F)cc4c(N5CC6CCC(C5)N6)nc(OCC5(CN6CC7(CCOCC7)C6)CC5)nc4c3F)c12` was 1.39

Lab note: measured IC50 of C#Cc1cccc2cc(O)cc(-c3c(F)cc4c(N5CC6CCC(C5)N6)nc(OCC5(CN6CCOC7(CC7)C6)CC5)nc4c3F)c12 [Compound 2] was 26

###

Examples of compounds with documented IC50 follow.
Target: GDP-loaded HIS-KRAS(G12D, aa 1-169) (Homo sapiens, UniProt P01116, G12D)
Construct: GDP-loaded HIS-KRAS(G12D, aa 1-169)
Assay: SOS1 catalyzed nucleotide exchange assay (TR-FRET)
Settings: 4 hours at 25° C.
Protocol: GDP-loaded HIS-KRAS(G12D, aa 1-169) was pre-incubated with a compound in the presence of 10 nM GDPin a 384-well plate (Greiner) for 15 min, then purified SOS1 ExD(Flag tag, aa 564-1049), BODIPY™ FL GTP (Invitrogen) and MAb (monoclonal antibody) Anti 6HIS-Tb cryptate Gold (Cisbio) were added to the assay wells (Final concentration: 1.5 nM GDP-loaded HIS-KRAS(G12D), 5 nM GDP, 0.5 μM SOS1 ExD, 80 nM BODIPY™ FL GTP, 52.5 ng/mL MAb Anti 6HIS-Tb cryptate Gold) and incubated for 4 hours at 25° C. […]
Report as a plain number; the unit nM is understood.

Lab note: measured IC50 of C#Cc1cccc2cc(O)cc(-c3c(F)cc4c(N5CC6CCC(C5)N6)nc(OCC5(CN6CC7CCCC7C6)CC5)nc4c3F)c12 (stereo not drawn) was 1.48

Continuing:
Lab note: measured IC50 of `C#Cc1c(F)ccc2cc(O)cc(-c3ccc4c(N5CC6CCC(C5)N6)nc(OCC5(CN6C7CCC6COC7)CC5)nc4c3F)c12` was 6.27

Lab note: measured IC50 of C#Cc1cccc2cc(O)cc(-c3ccc4c(N5CC6CCC(C5)N6)nc(OCC5(CN6CC7CCCC7C6)CC5)nc4c3F)c12 (stereo not drawn) was 35.5

Lab note: measured IC50 of `C#Cc1cccc2cc(O)cc(-c3c(F)cc4c(N5CC6CCC(C5)N6)nc(OCC5(CN6CC7(CCCCO7)C6)CC5)nc4c3F)c12` was 1.49

Lab note: measured IC50 of `C#Cc1cccc2cc(O)cc(-c3c(F)cc4c(N5CC6CCC(C5)N6)nc(OCC5(CN6CC(OC)C6)CC5)nc4c3F)c12` was 1.94

Lab note: measured IC50 of C#Cc1c(F)ccc2cc(O)cc(-c3c(Cl)cc4c(N5CC6CCC(C5)N6)nc(OCC5(CN6CC7CC6CO7)CC5)nc4c3F)c12 (single isomer, unassigned) [Compound 4A] was 244

###

Biological target: GDP-loaded HIS-KRAS(G12D, aa 1-169) (Homo sapiens, UniProt P01116, G12D)
Construct: GDP-loaded HIS-KRAS(G12D, aa 1-169)
Experiment: SOS1 catalyzed nucleotide exchange assay (TR-FRET)
Details: 4 hours at 25° C.
Examples of compounds with documented IC50 follow.
Report as a plain number; the unit nM is understood.

Lab note: measured IC50 of C#Cc1cccc2cc(O)cc(-c3c(F)cc4c(N5CC6CCC(C5)N6)nc(OCC5(CN6CCC7(C6)CC7(F)F)CC5)nc4c3F)c12 (stereo not drawn) was 4.36

Lab note: measured IC50 of `C#Cc1cccc2cc(O)cc(-c3c(F)cc4c(N5CC6CCC(C5)N6)nc(OCC5(CN6CC(C)(OC)C6)CC5)nc4c3F)c12` was 9.61

Lab note: measured IC50 of C#Cc1cccc2cc(O)cc(-c3c(F)cc4c(N5CC6CCC(C5)N6)nc(OCC5(CN6CCOC7(CC7)C6)CC5)nc4c3F)c12 (single isomer, unassigned) [Compound 2B] was 1.24

Lab note: measured IC50 of `C#Cc1cccc2cc(O)cc(-c3ccc4c(N5CC6CCC(C5)N6)nc(OCC5(CN6CCC7(CC6)CC7)CC5)nc4c3F)c12` was 28.6

Lab note: measured IC50 of `C#Cc1c(F)ccc2cc(O)cc(-c3c(SC(F)(F)F)cc4c(N5CC6CCC(C5)N6)nc(OCC5(CN6C[C@@H]7C[C@H]6CO7)CC5)nc4c3F)c12` was 0.97

Lab note: measured IC50 of `C#Cc1cccc2cc(O)cc(-c3c(F)cc4c(N5CC6CCC(C5)N6)nc(OCC5(CN6CC(O)C6)CC5)nc4c3F)c12` was 2.58

Lab note: measured IC50 of `C#Cc1cccc2cc(O)cc(-c3ccc4c(N5CC6CCC(C5)N6)nc(OCC5(CN6CC(OC)C6)CC5)nc4c3F)c12` was 23.2

Lab note: measured IC50 of C#Cc1cccc2cc(O)cc(-c3c(F)cc4c(N5CC6CCC(C5)N6)nc(OCC5(CN6CCC7(CCOC7)C6)CC5)nc4c3F)c12 (stereo not drawn) was 26.4

Lab note: measured IC50 of `C#Cc1cccc2cc(O)cc(-c3c(F)cc4c(N5CC6CCC(C5)N6)nc(OCC5(CN6CCn7cncc7C6)CC5)nc4c3F)c12` was 2.59

Lab note: measured IC50 of `C#Cc1cccc2cc(O)cc(-c3c(F)cc4c(N5CC6CCC(C5)N6)nc(OCC5(CN6C7CCC6CC(=O)C7)CC5)nc4c3F)c12` was 1.26

Lab note: measured IC50 of `C#Cc1cccc2cc(O)cc(-c3c(F)cc4c(N5CC6CCC(C5)N6)nc(OCC5(CN6CCOCC67CCC7)CC5)nc4c3F)c12` was 2.17
